# Protocol Notes: Therapeutic index (TI) value as ratio of lethal dose (LD50) to the inhibitory concentration (IC50)
# Assay type: cell-based
# Run Parameters: human, KB cells; read-out: TI
Measured selectivity ratio by item
Measure: selectivity ratio

- O=P(O)(O)C(NC1CC1)P(=O)(O)O: 10.7
- Cc1cccnc1NC(P(=O)(O)O)P(=O)(O)O: 4.02
- O=P(O)(O)C(O)(Cc1ccncc1)P(=O)(O)O: 48.9
- Cc1ccnc(NC(P(=O)(O)O)P(=O)(O)O)c1: 2.32
- Cc1cc(C)nc(NC(P(=O)(O)O)P(=O)(O)O)c1: 2.7
- O=P(O)(O)C(Nc1cccnc1)P(=O)(O)O: 18.6
- NCCC(O)(P(=O)(O)O)P(=O)(O)O: 4.11
- O=P(O)(O)C(O)(Cn1ccnc1)P(=O)(O)O: 80.9
- O=P(O)(O)C(O)(Cc1cccnc1)P(=O)(O)O: 106
- O=P(O)(O)C(O)(Cc1ccccn1)P(=O)(O)O: 1.71
- O=P(O)(O)C(O)(CC1=NC=NC1)P(=O)(O)O: 6.12
- O=P(O)(O)C(NC1CCCCCCC1)P(=O)(O)O: 8.19
- CCC(C)CNC(P(=O)(O)O)P(=O)(O)O (centres undefined): 10.8
- CCCCCN(C)CCC(O)(P(=O)(O)O)P(=O)(O)O: 0.19
- CC(C)CCNC(P(=O)(O)O)P(=O)(O)O: 3.56
- O=P(O)(O)C(NC1CCC1)P(=O)(O)O: 2.15
- O=P(O)(O)C(Nc1ccccn1)P(=O)(O)O: 10.4
